# assay-system: HLA-B*08:01 (human)
# protocol-summary: REVEAL MHC-peptide binding assay, recombinant HLA-B*08:01
# conditions: remark: other sources report otherwise
property: In Vitro Score (% of positive control peptide)

In the examples that follow, each entry is paired with its recorded In Vitro Score (% of positive control peptide).
binder: IFWVSRGRK [… (SEQ ID NO: 27)]
number: 0
//
binder: WVKRGSKKL [… (SEQ ID NO: 60)]
number: 56.1
//
binder: IFWVQRGRK [… (SEQ ID NO: 54)]
number: 0
//
binder: WVKRGAKKL [… (SEQ ID NO: 72)]
number: 34.1
//
binder: IIFWVKRGS [… (SEQ ID NO: 57)]
number: 0.4

I. WVARGRKKL [… (SEQ ID NO: 49)]
II. IFWVKRGLK [… (SEQ ID NO: 62)]
Q) Which is greater in In Vitro Score (% of positive control peptide), the first item I or the second item II ? Response format: the label of the selected entry.
A) II
